# testedSystem: rat α1β2γ2L type GABAA receptors expressed in Xenopus laevis oocytes (Rattus norvegicus, UniProt P62813+P63138)
# Construct: expressed in transfected cells; host or cells: Xenopus laevis oocytes
# Sequence (P62813 28-455): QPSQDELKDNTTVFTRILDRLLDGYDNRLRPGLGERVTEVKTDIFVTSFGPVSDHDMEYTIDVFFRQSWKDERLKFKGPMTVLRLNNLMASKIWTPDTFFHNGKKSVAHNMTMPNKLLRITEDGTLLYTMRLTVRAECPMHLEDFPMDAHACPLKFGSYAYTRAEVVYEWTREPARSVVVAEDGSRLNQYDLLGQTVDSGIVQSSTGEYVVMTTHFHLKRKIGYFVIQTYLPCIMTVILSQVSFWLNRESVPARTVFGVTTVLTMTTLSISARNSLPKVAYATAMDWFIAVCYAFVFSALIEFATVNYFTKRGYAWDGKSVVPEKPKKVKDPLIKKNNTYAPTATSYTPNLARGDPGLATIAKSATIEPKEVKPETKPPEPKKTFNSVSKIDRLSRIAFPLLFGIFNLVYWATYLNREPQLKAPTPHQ
# Sequence (P63138 26-474): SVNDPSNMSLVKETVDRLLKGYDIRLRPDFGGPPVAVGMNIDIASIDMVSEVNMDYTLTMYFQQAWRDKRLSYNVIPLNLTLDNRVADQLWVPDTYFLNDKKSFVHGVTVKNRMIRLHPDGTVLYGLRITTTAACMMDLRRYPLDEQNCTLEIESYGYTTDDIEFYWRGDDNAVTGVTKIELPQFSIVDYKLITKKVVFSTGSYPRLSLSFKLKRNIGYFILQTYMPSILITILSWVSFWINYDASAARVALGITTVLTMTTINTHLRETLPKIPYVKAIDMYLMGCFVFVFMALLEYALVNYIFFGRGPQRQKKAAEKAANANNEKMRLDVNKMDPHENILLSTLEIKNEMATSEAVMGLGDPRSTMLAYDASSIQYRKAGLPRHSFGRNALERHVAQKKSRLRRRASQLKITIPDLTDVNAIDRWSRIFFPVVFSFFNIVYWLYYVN
# Sequence (P18508 with tags, fused parts or gaps INS375LLRMFSFK partner): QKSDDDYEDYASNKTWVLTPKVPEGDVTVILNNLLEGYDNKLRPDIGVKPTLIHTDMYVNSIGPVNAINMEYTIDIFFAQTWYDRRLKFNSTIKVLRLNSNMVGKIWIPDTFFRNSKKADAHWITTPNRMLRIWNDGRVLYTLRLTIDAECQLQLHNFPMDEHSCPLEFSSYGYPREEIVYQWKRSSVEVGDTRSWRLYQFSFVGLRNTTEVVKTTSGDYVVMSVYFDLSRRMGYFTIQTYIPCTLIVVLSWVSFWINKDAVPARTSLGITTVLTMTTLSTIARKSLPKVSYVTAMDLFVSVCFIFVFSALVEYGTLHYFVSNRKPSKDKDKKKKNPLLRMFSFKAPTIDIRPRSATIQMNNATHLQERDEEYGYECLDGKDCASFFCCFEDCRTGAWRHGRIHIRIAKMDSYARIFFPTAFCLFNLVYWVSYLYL
# runDescription: Oocyte electrophysiology: potentiation of GABA-mediated chloride currents and direct gating
# Type: cell-based
# particulars: ratio of currents in presence/absence of 0.1 μM compound; 2 μM GABA; ± SEM, N ≥4
# Method: The compounds of the present disclosure were evaluated for the ability to potentiate chloride currents mediated by 2 μM GABA at rat α1β2γ2L type GABAA receptors expressed in Xenopus laevis oocytes and the results are shown in Table 2.
Recorded oocyte electrophysiology 0.1 μM, one value per entry.
Kindly provide the number alone.

chemicalstructure=COC[C@]12CC[C@@H](O)C[C@@H]1CC[C@H]1[C@@H]3CC[C@H](C(C)=O)[C@@]3(C)CC[C@@H]12 measuredvalue=2.15
chemicalstructure=COC[C@]12CC[C@@H](O)C[C@@H]1CC[C@H]1[C@@H]3CC[C@H]([N+](=O)[O-])[C@@]3(C)CC[C@@H]12 measuredvalue=2.07

// next entry
**Query** Consider the compound COC[C@]12CC[C@H](O)C[C@@H]1CC[C@H]1[C@@H]3CC[C@H](OC)[C@@]3(C)CC[C@@H]12 and give its measured oocyte electrophysiology 0.1 μM.
**Result** 0.91
